Entries and their logP values follow.
Would you mind answering with just the numeric figure?

[
  {
    "molecule smiles": "O=c1[nH]c(=O)n([C@H]2C[C@H](F)[C@@H](CO)O2)cc1Cl",
    "property measured": "logP",
    "experimental value": -0.17
  },
  {
    "molecule smiles": "[N-]=[N+]=N[C@H]1C[C@H](n2cnc3c(N)ncnc32)O[C@@H]1CO",
    "property measured": "logP",
    "experimental value": 0.35
  }
]

logP for Nc1nc(=O)c2ncn([C@H]3CC[C@@H](CO)O3)c2[nH]1 is -1.01

* * *

Entries and their logP values follow.
Would you mind answering with just the numeric figure?

logP for [N-]=[N+]=N[C@H]1C[C@H](n2cnc3c(N)nc(N)nc32)O[C@@H]1CO is 0.24

* * *

Entries and their logP values follow.

[
  {
    "compound": "O=c1[nH]c(=O)n(C2CC(F)C(CO)O2)cc1I (stereo unspecified)",
    "logP": 0.21
  },
  {
    "compound": "O=c1[nH]c(=O)n(C2CC(F)C(CO)O2)cc1Br (stereo unspecified)",
    "logP": -0.04
  }
]

logP for O=c1ccn(C2CC(F)C(CO)O2)c(=O)[nH]1 (stereo unspecified) is -0.49

logP for Nc1ncnc2c1ncn2[C@H]1C[C@H](F)[C@@H](CO)O1 is 0.08

logP for Nc1nc(=O)c2ncn([C@H]3C[C@H](F)[C@@H](CO)O3)c2[nH]1 is -0.66

logP for Nc1nc(=O)c2ncn([C@H]3C=C[C@@H](CO)O3)c2[nH]1 is -1.21

* * *

Short version: logP at least -0.3 is 1, less is -1.

Prompt: Given the entry Cc1cn([C@H]2C[C@H](F)[C@@H](CO)O2)c(=O)[nH]c1=O , answer whether its logP meets or surpasses -0.3.
Completion: 1

Prompt: Given the entry Nc1nc(N)c2ncn(C3CC(F)C(CO)O3)c2n1 (stereo not given) , answer whether its logP meets or surpasses -0.3.
Completion: 1

Prompt: Given the entry O=c1[nH]c(=O)n([C@H]2CC[C@@H](CO)O2)cc1I , answer whether its logP meets or surpasses -0.3.
Completion: -1

* * *

property measured: logP
Would you mind answering with just the numeric figure?

[
  {
    "compound": "[N-]=[N+]=NC1C(CO)OC(n2cnc3c(N)ncnc32)C1N=[N+]=[N-] (configuration not stated)",
    "experimental value": 0.8
  },
  {
    "compound": "Nc1nc(N)c2ncn(C3CC(O)C(CO)O3)c2n1 (configuration not stated)",
    "experimental value": -0.52
  },
  {
    "compound": "[N-]=[N+]=NC1CC(n2ccc(=O)[nH]c2=O)OC1CO (configuration not stated)",
    "experimental value": -0.32
  }
]

logP for O=c1ccn([C@H]2C=C[C@@H](CO)O2)c(=O)[nH]1 is -1.07

logP for O=c1ccn(C2CC(O)C(CO)O2)c(=O)[nH]1 (configuration not stated) is -1.51

logP for O=c1[nH]c(=O)n([C@H]2CC[C@@H](CO)O2)cc1Cl is -1.11

logP for O=c1[nH]c(=O)n(C2CCC(CO)O2)cc1Br (configuration not stated) is -0.99

meta.source: the OPERA property sets (Mansouri et al. 2018)
